FYI, the data here is from ChEMBL document CHEMBL4765445.

experiment: Apparent volume of distribution in rat at 5 mg/kg, iv; assay type: ADME, organism-based; conditions: in vivo, read-out: Vz

- smilesInput: "COc1cc2ncnc(Oc3ccc(Nc4nccc5[nH]cc(-c6ccc(F)cc6)c(=O)c45)cc3)c2cc1OC"
  Vd: "0.2 L/kg"

---

assay: Half life in human liver microsomes; format: ADME, Microsome
Rule: half-life under 4 h gives 0.0, otherwise 1.0.

- smilesInput: "COc1cc2ncnc(Oc3ccc(Nc4nccc5[nH]cc(-c6ccc(F)cc6)c(=O)c45)cc3F)c2cc1OCCO.Cc1ccc(S(=O)(=O)O)cc1"
  label: 1.0
- smilesInput: "COc1cc2ncnc(Oc3ccc(Nc4nccc5[nH]cc(-c6ccc(F)cc6)c(=O)c45)cc3)c2cc1OC"
  label: 1.0
- smilesInput: "COc1cc2ncnc(Oc3ccc(Nc4nccc5[nH]cc(-c6ccc(F)cc6)c(=O)c45)cc3F)c2cc1OCC(C)(C)O"
  label: 1.0
- smilesInput: "COc1cc2ncnc(Oc3ccc(Nc4nccc5[nH]cc(-c6ccc(F)cc6)c(=O)c45)cc3F)c2cc1OC"
  label: 1.0
- smilesInput: "COc1cc2c(Oc3ccc(Nc4nccc5[nH]cc(-c6ccc(F)cc6)c(=O)c45)cc3F)ncnc2cc1OCCO.Cc1ccc(S(=O)(=O)O)cc1"
  label: 0.0
- smilesInput: "COc1cc2ncnc(Oc3ccc(Nc4nccc5c4c(=O)c(-c4ccc(F)cc4)cn5C)cc3F)c2cc1OC"
  label: 1.0
- smilesInput: "O=c1c(-c2ccc(F)cc2)c[nH]c2ccnc(Nc3ccc(Oc4ncnc5cc6c(cc45)OCCOCCOCCO6)c(F)c3)c12"
  label: 0.0

---

test: AUC (0 to infinity) in rat at 5 mg/kg, iv; type: ADME, organism-based; design: time infinity, route intravenous, dose 5 mg/kg; conditions: in vivo
assayMetric: AUC(0-inf) (µg·h/mL)

- smilesInput: "COc1cc2ncnc(Oc3ccc(Nc4nccc5[nH]cc(-c6ccc(F)cc6)c(=O)c45)cc3)c2cc1OC"
  assayMetric: "AUC(0-inf)"
  uom: "µg·h/mL"
  experimentalValue: 510

---

experiment: Clearance in rat at 10 mg/kg, po; type: ADME, organism-based; settings: in vivo

- smilesInput: "COc1cc2ncnc(Oc3ccc(Nc4nccc5[nH]cc(-c6ccc(F)cc6)c(=O)c45)cc3)c2cc1OC"
  CL/F, mL/min/kg: 0.333

---

test: Oral bioavailability in rat at 10 mg/kg; format: ADME, organism-based; settings: in vivo

- smilesInput: "COc1cc2ncnc(Oc3ccc(Nc4nccc5[nH]cc(-c6ccc(F)cc6)c(=O)c45)cc3)c2cc1OC"
  bioavailability [%]: 42

---

Below, each entry is listed with its recorded pIC50.
target: Hepatocyte growth factor receptor (Homo sapiens, UniProt P08581); experiment: Inhibition of MET in human MKN-45 cells assessed as reduction in HGF-mediated autophosphorylation; type: cell-based
Sequence (P08581 whole entry): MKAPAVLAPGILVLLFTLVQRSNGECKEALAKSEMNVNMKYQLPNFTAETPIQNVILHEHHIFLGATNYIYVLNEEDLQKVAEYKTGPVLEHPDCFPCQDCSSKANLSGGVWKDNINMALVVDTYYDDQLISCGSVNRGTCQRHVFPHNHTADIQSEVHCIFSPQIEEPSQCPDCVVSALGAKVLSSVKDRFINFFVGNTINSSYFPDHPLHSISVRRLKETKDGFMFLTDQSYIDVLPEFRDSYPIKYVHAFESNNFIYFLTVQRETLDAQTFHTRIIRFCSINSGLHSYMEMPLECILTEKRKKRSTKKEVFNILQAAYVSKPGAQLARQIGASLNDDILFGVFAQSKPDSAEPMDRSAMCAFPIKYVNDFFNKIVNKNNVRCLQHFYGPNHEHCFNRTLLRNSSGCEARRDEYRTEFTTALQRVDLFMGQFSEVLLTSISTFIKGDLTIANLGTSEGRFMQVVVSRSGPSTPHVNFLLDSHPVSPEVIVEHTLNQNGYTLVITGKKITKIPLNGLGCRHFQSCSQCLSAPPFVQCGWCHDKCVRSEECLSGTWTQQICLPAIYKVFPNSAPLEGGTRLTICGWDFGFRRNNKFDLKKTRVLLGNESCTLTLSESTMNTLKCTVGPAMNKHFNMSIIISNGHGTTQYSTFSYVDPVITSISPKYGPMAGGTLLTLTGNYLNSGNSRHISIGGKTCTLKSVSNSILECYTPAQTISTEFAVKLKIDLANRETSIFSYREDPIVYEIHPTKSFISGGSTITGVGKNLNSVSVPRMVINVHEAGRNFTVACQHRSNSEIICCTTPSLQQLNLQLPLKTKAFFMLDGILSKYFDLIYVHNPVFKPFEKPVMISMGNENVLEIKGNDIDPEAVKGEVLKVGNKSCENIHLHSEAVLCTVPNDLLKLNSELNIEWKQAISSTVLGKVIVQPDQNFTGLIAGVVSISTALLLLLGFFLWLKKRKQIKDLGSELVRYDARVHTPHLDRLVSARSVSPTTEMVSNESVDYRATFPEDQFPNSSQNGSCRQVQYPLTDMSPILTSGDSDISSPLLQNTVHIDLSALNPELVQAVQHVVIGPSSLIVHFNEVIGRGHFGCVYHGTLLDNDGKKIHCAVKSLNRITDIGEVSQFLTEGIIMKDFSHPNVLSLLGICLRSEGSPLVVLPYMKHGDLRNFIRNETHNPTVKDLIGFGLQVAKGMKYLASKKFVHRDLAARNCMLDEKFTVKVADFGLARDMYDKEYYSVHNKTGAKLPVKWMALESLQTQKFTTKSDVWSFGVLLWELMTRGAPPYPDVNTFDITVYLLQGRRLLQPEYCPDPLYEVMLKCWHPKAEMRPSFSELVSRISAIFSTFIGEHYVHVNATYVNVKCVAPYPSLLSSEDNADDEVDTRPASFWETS
pIC50: −log10 of the molar value.

- smilesInput: "COc1cc2ncnc(Oc3ccc(Nc4nccc5c4c(=O)c(-c4ccc(F)cc4)cn5C)cc3F)c2cc1OC"
  pIC50: 7.08
- smilesInput: "COc1cc2ncnc(Oc3ccc(Nc4nccc5[nH]cc(-c6ccc(F)cc6)c(=O)c45)cc3F)c2cc1OC"
  pIC50: 7.23
- smilesInput: "COc1cc2ncnc(Oc3ccc(Nc4nccc5[nH]cc(-c6ccc(F)cc6)c(=O)c45)cc3)c2cc1OC"
  pIC50: 7.06
- smilesInput: "CCN(CC)CCCOc1cc2c(Oc3ccc(Nc4nccc5[nH]cc(-c6ccc(F)cc6)c(=O)c45)cc3F)ncnc2cc1OC"
  pIC50: 6.40
- smilesInput: "COc1cc2c(Oc3ccc(Nc4nccc5[nH]cc(-c6ccc(F)cc6)c(=O)c45)cc3F)ncnc2cc1OCCCN1CCCC1"
  pIC50: 6.89
